- System under test: Phosphodiesterase 1 (Bos taurus, UniProt Q01061+P14100)
- Test method notes: Inhibition of bovine aorta PDE1 (phosphodiesterase 1)
- Format: protein assay
# IC50 annotations

Compound	IC50
CCCOc1ccccc1-c1nc2[nH]nnc2c(=O)[nH]1 [ZAPRINAST]	2.6 µM
COc1ccc([C@@H]2c3[nH]c4ccccc4c3C[C@@H]3C(=O)N(Cc4ccccc4)C(=O)N23)cc1	> 10 µM
COc1ccc([C@@H]2c3[nH]c4ccccc4c3C[C@@H]3C(=O)N(C4CCCCC4)C(=O)N23)cc1	> 10 µM
CCCCN1C(=O)[C@H]2Cc3c([nH]c4ccccc34)[C@@H](c3ccncc3)N2C1=O	2 µM
CCCCN1C(=O)[C@H]2Cc3c([nH]c4ccccc34)[C@H](c3ccc(OC)cc3)N2C1=O	> 10 µM
CCCCN1C(=O)[C@H]2Cc3c([nH]c4ccccc34)[C@@H](c3ccc(OC)cc3)N2C1=O	> 10 µM

====

- Test method notes: Increase in intracellular cGMP concentration in atrial natriuretic factor treated rat aortic smooth muscle cells.
- Format: functional, tissue-based
- Measurement setup: Aorta
pEC50: −log10 of the molar value.
Outcome label depends on pEC50 relative to 6: at/above gives met, below gives not met.

Smiles representation	Category
CCCCN1C(=O)[C@H]2Cc3c([nH]c4ccccc34)[C@@H](c3ccc(Cl)cc3)N2C1=O	not met
COc1ccc([C@H]2c3[nH]c4ccccc4c3C[C@@H]3C(=O)N(Cc4cccnc4)C(=O)N23)cc1	not met
CCN1C(=O)[C@H]2Cc3c([nH]c4ccccc34)[C@@H](c3ccc(OC)cc3)N2C1=O	met
COc1ccc([C@H]2c3[nH]c4ccccc4c3C[C@@H]3C(=O)N(Cc4ccccc4)C(=O)N23)cc1	not met
CCCCN1C(=O)[C@H]2Cc3c([nH]c4ccccc34)[C@@H](c3cccc(Cl)c3)N2C1=O	not met

====

- System under test: Phosphodiesterase 4 (Homo sapiens, UniProt P27815+Q08499+Q07343+Q08493)
- Test method notes: Inhibition of human recombinant PDE4 (phosphodiesterase 4)
- Assay type: protein assay

Smiles representation	IC50
CCCCN1C(=O)[C@H]2Cc3c([nH]c4ccccc34)[C@@H](c3ccc(OC)cc3)N2C1=O	> 10 µM
COc1ccc([C@@H]2c3[nH]c4ccccc4c3C[C@@H]3C(=O)N(C4CCCCC4)C(=O)N23)cc1	> 10 µM
CCCCN1C(=O)[C@H]2Cc3c([nH]c4ccccc34)[C@H](c3ccc(OC)cc3)N2C1=O	> 10 µM
CCCCN1C(=O)[C@H]2Cc3c([nH]c4ccccc34)[C@@H](c3ccncc3)N2C1=O	> 10 µM
COc1ccc([C@@H]2c3[nH]c4ccccc4c3C[C@@H]3C(=O)N(Cc4ccccc4)C(=O)N23)cc1	> 10 µM

====

# EC50 annotations
- Test method notes: Increase in intracellular cGMP concentration in atrial natriuretic factor treated rat aortic smooth muscle cells.
- Type: functional, tissue-based
- Measurement setup: Aorta
Reported property: EC50 (nM)

Smiles representation	Reported property	Bound type	Measured
CCCCN1C(=O)[C@H]2Cc3c([nH]c4ccccc34)[C@@H](c3ccccc3)N2C1=O	EC50	=	5000
COc1ccc([C@@H]2c3[nH]c4ccccc4c3C[C@@H]3C(=O)N(C4CCCCC4)C(=O)N23)cc1	EC50	=	300
COc1ccc([C@H]2c3[nH]c4ccccc4c3C[C@@H]3C(=O)N(C4CCCCC4)C(=O)N23)cc1	EC50	=	100
CCCCN1C(=O)[C@H]2Cc3c([nH]c4ccccc34)[C@H](c3ccccc3)N2C1=O	EC50	=	2000
COc1ccc([C@@H]2c3[nH]c4ccccc4c3C[C@@H]3C(=O)N(Cc4ccccc4)C(=O)N23)cc1	EC50	=	150
CCCCN1C(=O)[C@H]2Cc3c([nH]c4ccccc34)[C@H](c3ccc(Cl)cc3)N2C1=O	EC50	=	1500
COc1ccc([C@H]2c3[nH]c4ccccc4c3C[C@@H]3C(=O)N(CCN4CCCC4)C(=O)N23)cc1	EC50	=	10000
CCCCN1C(=O)[C@H]2Cc3c([nH]c4ccccc34)[C@H](c3cccc(Cl)c3)N2C1=O	EC50	>	10000

====

# pIC50 annotations
- System under test: cGMP-specific 3',5'-cyclic phosphodiesterase (Bos taurus)
pIC50: −log10 of the molar value.

Smiles representation	Bound type	pIC50
COc1ccc([C@H]2c3[nH]c4ccccc4c3C[C@@H]3C(=O)N(CCN4CCCC4)C(=O)N23)cc1	=	7.00
CCN1C(=O)[C@H]2Cc3c([nH]c4ccccc34)[C@@H](c3ccc(OC)cc3)N2C1=O	=	8.00
COc1ccc([C@H]2c3[nH]c4ccccc4c3C[C@@H]3C(=O)N(CCN(C)C)C(=O)N23)cc1	=	7.52
CCCCN1C(=O)[C@H]2Cc3c(n(C)c4ccccc34)[C@@H](c3ccc(OC)cc3)N2C1=O	<	5.00

====

Measured IC50 (cGMP-specific 3',5'-cyclic phosphodiesterase (Bos taurus, UniProt Q28156))

Smiles representation	Measurement units	IC50
CCCCN1C(=O)[C@H]2Cc3c([nH]c4ccccc34)[C@@H](c3ccc(C#N)cc3)N2C1=O	nM	900
CCCCN1C(=O)[C@H]2Cc3c([nH]c4ccccc34)[C@@H](c3ccoc3)N2C1=O	nM	100
CCCCN1C(=O)[C@H]2Cc3c([nH]c4ccccc34)[C@H](c3ccc(Cl)cc3)N2C1=O	nM	20
CCCCN1C(=O)[C@H]2Cc3c([nH]c4ccccc34)[C@@H](c3ccc(Cl)cc3)N2C1=O	nM	50
CCCCN1C(=O)[C@H]2Cc3c([nH]c4ccccc34)[C@@H](c3cccc(Cl)c3)N2C1=O	nM	50
CCOC(=O)c1cc2c(cn1)[nH]c1ccccc12	nM	800
CCCCN1C(=O)[C@H]2Cc3c([nH]c4ccccc34)[C@@H](c3ccsc3)N2C1=O	nM	30
COc1ccc([C@@H]2c3[nH]c4ccccc4c3C[C@@H]3C(=O)N(Cc4ccccc4)C(=O)N23)cc1	nM	4

====

- Test method notes: Increase in intracellular cGMP concentration in atrial natriuretic factor treated rat aortic smooth muscle cells.
- Type: functional, tissue-based
- Measurement setup: Aorta
pEC50: −log10 of the molar value.
# pEC50 annotations
Reported property: pEC50

Smiles representation	Measured
CCCCN1C(=O)[C@H]2Cc3c([nH]c4ccccc34)[C@@H](c3ccc(OC)cc3)N2C1=O	6.15
COc1ccc([C@H]2c3[nH]c4ccccc4c3C[C@@H]3C(=O)N(CCN(C)C)C(=O)N23)cc1	5.46
COc1ccc([C@H]2c3[nH]c4ccccc4c3C[C@@H]3C(=O)NC(=O)N23)cc1	5.52
COc1ccc([C@H]2c3[nH]c4ccccc4c3C[C@@H]3C(=O)N(CCc4ccccn4)C(=O)N23)cc1	5.82

====

# EC50 annotations
- Test method notes: Increase in intracellular cGMP concentration in atrial natriuretic factor treated rat aortic smooth muscle cells.
- Type: functional, tissue-based
- Measurement setup: Aorta

Smiles representation	EC50 (nM)
CCCCN1C(=O)[C@H]2Cc3c([nH]c4ccccc34)[C@H](c3ccc(OC)cc3)N2C1=O	1000
COc1ccc([C@@H]2c3[nH]c4ccccc4c3C[C@@H]3C(=O)N(C)C(=O)N23)cc1	1000
CCN1C(=O)[C@H]2Cc3c([nH]c4ccccc34)[C@H](c3ccc(OC)cc3)N2C1=O	1500
